compounds and their reported EC50
Test system: pLai RLuc reporter virus
ASSAY_EXPLANATION: microbe, parasite or virus in culture
Assay type: cell-based, HIV
STATED_CONDITIONS: Human immunodeficiency virus 1, 72 h, read-out: Antiviral Serum Shift RLuc CCM, CCM (RPMI media, 10% FBS, 1% P/S), 72-h incubation
Give the value, in units of pM, as a plain number.

Here is how some compounds turned out for EC50.
INSERT INTO measurements (compound, tested_system, readout_label, result_value) VALUES
  ('C[C@@H]1CC[C@H]2CN(C1)C(=O)c1c(O)c(=O)c(C(=O)NCc3c(F)cc(F)cc3F)cn12', 'pLai RLuc reporter virus', 'EC50', 182),
  ('O=C(NCc1ccc(F)cc1F)c1cn2c(c(O)c1=O)C(=O)N1Cc3ccccc3C[C@H]2C1', 'pLai RLuc reporter virus', 'EC50', 302),
  ('C[C@]12CCCCN(C1)C(=O)c1c(O)c(=O)c(C(=O)NCc3c(F)cc(F)cc3F)cn12', 'pLai RLuc reporter virus', 'EC50', 361),
  ('O=C(NCc1c(F)cc(F)cc1F)c1cn2c(c(O)c1=O)C(=O)N1C[C@@H]2CCC[C@@H]1C(F)F', 'pLai RLuc reporter virus', 'EC50', 250),
  ('C[C@H]1CC(F)(F)C[C@H]2CN1C(=O)c1c(O)c(=O)c(C(=O)NCc3c(F)cc(F)cc3F)cn12', 'pLai RLuc reporter virus', 'EC50', 514),
  ('C[C@H]1[C@H](F)CC[C@H]2CN1C(=O)c1c(O)c(=O)c(C(=O)NCc3c(F)cc(F)cc3F)cn12', 'pLai RLuc reporter virus', 'EC50', 306);

Recall the reported EC50 of "O=C(NCc1ccc(F)cc1F)c1cn2c(c(O)c1=O)C(=O)N1CCCOC[C@@H]2C1" when tested on pLai RLuc reporter virus. 3640

Recall the reported EC50 of "C[C@@H]1C=C[C@H](C)N2C[C@H]1n1cc(C(=O)NCc3ccc(F)cc3F)c(=O)c(O)c1C2=O" when tested on pLai RLuc reporter virus. 294

Recall the reported EC50 of "CC[C@]1(O)CCCN2C[C@H]1n1cc(C(=O)NCc3c(F)cc(F)cc3F)c(=O)c(O)c1C2=O" when tested on pLai RLuc reporter virus. 462

Recall the reported EC50 of "O=C(NCc1c(F)cc(F)cc1F)c1cn2c(c(O)c1=O)C(=O)N1CC[C@@H](F)C[C@H]2C1" when tested on pLai RLuc reporter virus. 715

Recall the reported EC50 of "C[C@@H]1CC[C@H](C)[C@@H]2CN1C(=O)c1c(O)c(=O)c(C(=O)NCc3c(F)cc(F)cc3F)cn12" when tested on pLai RLuc reporter virus. 729

###

System: pLai RLuc reporter virus
ASSAY_EXPLANATION: microbe, parasite or virus in culture
Type: cell-based, HIV
STATED_CONDITIONS: Human immunodeficiency virus 1, 72 h, read-out: Antiviral Serum Shift RLuc CCM, CCM (RPMI media, 10% FBS, 1% P/S), 72-h incubation
READOUT_LABEL: EC50
Remember to put the unit after the number in your answer.

Here is how some compounds turned out for EC50.
INSERT INTO measurements (compound, readout_label, result_value) VALUES
  ('C[C@H]1CCC[C@H]2CN1C(=O)c1c(O)c(=O)c(C(=O)NCc3ccc(F)cc3F)cn12', 'EC50', '0.218 nM'),
  ('C[C@]1(F)CCCN2C[C@H]1n1cc(C(=O)NCc3ccc(F)cc3F)c(=O)c(O)c1C2=O', 'EC50', '0.457 nM'),
  ('C[C@H]1CCC[C@H]2CN1C(=O)c1c(O)c(=O)c(C(=O)NCc3c(F)cc(F)cc3F)cn12', 'EC50', '0.284 nM'),
  ('O=C(NCc1ccc(F)cc1F)c1cn2c(c(O)c1=O)C(=O)N1CCCOC[C@H]2C1', 'EC50', '1.37 nM'),
  ('O=C(NCc1c(F)cc(F)cc1F)c1cn2c(c(O)c1=O)C(=O)N1CCc3ccc(Cl)cc3[C@H]2C1', 'EC50', '0.708 nM');

Item "O=C(NCc1ccc(F)cc1F)c1cn2c(c(O)c1=O)C(=O)N1CCC[C@@H]3C[C@]32C1" : provide EC50 0.297 nM

Item "O=C(NCc1ccc(F)cc1F)c1cn2c(c(O)c1=O)C(=O)N1C[C@H]2CCc2cc(Cl)ccc21" : provide EC50 0.202 nM

Item O=C(NCc1ccc(F)cc1F)c1cn2c(c(O)c1=O)C(=O)N1CCc3cc(F)c(F)cc3[C@H]2C1 (single isomer, unassigned) : provide EC50 0.447 nM

Item O=C(NCc1ccc(F)cc1F)c1cn2c(c(O)c1=O)C(=O)N1C[C@@H](F)CC[C@@H]2C1 (single isomer, unassigned) : provide EC50 0.223 nM
